subject_of_test: Dual specificity protein phosphatase 6 (Homo sapiens)
assay_method_text: DUSP6 inhibitors restoring Erk phosphorylation by chemical complementation, primary imaging in DUSP6-transfected HeLa (AID 609);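 further: phospho-Erk level distribution per well compared with pooled transfected vehicle control wells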
condition_description: HeLa MKP-3 transfected, phospho-Erk imaging KS statistic; at 10 µM; active compounds read high; cells stimulated with TPA for 15 min
observation_type: inhibition (%)
A number alone suffices; assume %.

Reference set (4 entries):
* COC(=O)c1sc(NC(=O)C(C)C)c(C(=O)OC)c1C | 3.42
* CN1CCCN=C1COC(=O)C(O)(c1ccccc1)C1CCCCC1 (stereo not given) | 3.45
* Cc1c(NC(=O)c2ccc(=O)oc2)c(=O)n(-c2ccccc2)n1C | 3.42
* C=CCn1c(=S)[nH]c2nc3c(cc2c1=O)CCCC3 | -7.28

Shift focus to the following entry.
Q: Test system Dual specificity protein phosphatase 6 (Homo sapiens); read-out inhibition; what value for `Nc1ccc(S(=O)(=O)NC(=O)c2ccccc2)cc1` ?
A: 14.6
